meta.source: patent US20230404998A1

EXPERIMENTAL TARGET: UniProt P17948
Sequence (P17948 27-1338, species assumed): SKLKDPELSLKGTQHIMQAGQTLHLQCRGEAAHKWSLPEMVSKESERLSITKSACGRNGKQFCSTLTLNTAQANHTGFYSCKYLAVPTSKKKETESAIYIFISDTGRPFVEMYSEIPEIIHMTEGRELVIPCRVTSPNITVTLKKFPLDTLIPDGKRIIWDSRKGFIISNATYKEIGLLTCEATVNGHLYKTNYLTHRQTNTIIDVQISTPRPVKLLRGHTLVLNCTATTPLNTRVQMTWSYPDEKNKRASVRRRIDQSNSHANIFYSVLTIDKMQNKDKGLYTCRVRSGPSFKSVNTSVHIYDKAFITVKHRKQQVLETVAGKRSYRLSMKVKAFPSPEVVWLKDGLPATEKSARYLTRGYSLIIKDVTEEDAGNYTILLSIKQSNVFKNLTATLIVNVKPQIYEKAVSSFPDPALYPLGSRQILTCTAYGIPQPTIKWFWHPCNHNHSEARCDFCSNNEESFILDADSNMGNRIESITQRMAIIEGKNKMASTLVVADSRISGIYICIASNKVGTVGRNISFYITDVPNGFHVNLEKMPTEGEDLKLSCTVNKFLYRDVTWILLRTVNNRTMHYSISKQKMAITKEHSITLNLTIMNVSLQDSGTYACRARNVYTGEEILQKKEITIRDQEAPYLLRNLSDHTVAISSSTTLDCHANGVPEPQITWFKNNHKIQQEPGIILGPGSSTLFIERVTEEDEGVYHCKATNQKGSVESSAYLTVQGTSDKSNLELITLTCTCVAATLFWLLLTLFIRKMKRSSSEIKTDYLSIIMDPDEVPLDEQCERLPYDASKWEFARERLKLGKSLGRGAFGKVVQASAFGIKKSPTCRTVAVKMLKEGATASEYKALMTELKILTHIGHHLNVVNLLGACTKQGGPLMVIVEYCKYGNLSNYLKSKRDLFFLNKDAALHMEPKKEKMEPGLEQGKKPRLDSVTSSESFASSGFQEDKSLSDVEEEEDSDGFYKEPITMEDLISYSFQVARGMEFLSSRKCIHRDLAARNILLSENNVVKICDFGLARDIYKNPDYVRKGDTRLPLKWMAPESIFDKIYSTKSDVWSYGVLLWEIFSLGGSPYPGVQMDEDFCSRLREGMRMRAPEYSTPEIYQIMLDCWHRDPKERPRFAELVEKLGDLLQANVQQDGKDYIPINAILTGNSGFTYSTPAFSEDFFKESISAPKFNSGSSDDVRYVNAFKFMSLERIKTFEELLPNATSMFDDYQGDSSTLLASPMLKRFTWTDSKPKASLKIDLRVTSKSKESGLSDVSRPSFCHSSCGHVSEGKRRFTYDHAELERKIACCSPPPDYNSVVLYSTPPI
MEASURED ATTRIBUTE: IC50

SMILES NOTATION	RECORDED MEASUREMENT
Cc1ccc(C(=O)Nc2ccc(CN3CCN(C)CC3)c(C(F)(F)F)c2)cc1C#Cc1cnc2[nH]ncc2c1	4.2 nM

* * *

EXPERIMENTAL TARGET: UniProtKB P35968
Sequence (P35968 20-1356): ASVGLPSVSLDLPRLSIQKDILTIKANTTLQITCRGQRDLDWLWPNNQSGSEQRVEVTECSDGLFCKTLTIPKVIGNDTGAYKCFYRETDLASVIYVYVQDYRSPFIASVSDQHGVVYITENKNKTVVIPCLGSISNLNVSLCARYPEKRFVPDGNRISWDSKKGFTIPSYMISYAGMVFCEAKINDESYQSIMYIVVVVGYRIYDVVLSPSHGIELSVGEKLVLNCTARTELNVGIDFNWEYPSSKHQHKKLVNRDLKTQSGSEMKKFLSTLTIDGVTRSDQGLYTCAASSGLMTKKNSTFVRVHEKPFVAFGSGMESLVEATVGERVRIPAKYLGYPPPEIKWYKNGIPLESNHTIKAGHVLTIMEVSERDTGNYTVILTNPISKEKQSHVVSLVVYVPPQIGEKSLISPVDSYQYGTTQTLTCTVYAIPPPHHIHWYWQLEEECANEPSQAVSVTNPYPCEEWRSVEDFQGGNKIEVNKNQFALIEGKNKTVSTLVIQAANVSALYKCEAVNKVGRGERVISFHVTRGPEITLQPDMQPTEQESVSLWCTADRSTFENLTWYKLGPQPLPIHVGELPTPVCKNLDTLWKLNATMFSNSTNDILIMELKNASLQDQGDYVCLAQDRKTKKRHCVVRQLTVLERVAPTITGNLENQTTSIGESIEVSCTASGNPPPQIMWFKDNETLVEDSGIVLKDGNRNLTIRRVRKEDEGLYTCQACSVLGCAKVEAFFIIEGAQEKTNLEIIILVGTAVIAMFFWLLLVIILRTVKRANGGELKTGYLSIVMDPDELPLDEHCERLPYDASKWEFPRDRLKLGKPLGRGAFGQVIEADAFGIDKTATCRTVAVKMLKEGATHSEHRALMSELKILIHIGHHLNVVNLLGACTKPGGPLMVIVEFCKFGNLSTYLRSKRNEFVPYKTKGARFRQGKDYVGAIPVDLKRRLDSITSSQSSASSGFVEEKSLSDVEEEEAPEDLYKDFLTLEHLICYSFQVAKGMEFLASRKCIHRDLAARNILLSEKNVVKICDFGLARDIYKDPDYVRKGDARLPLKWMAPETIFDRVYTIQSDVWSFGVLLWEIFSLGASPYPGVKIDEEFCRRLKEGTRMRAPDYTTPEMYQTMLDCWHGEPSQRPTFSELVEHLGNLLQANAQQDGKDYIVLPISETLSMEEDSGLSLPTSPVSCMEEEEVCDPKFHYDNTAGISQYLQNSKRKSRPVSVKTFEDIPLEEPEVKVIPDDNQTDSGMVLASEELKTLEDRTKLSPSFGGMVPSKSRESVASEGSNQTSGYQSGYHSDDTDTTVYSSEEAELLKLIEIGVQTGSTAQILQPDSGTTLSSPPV
MEASURED ATTRIBUTE: IC50 (nM)

SMILES NOTATION	MEASURED ATTRIBUTE	RECORDED MEASUREMENT
Cc1ccc(C(=O)Nc2ccc(CN3CCN(C)CC3)c(C(F)(F)F)c2)cc1C#Cc1cnc2[nH]ncc2c1	IC50	6.1
